B1: CDC25A (parent)
chain: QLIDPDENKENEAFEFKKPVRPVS

Variants of: B1
test.method.notes: protein stability index of a GFP-peptide fusion (GPS, HEK-293T) (PSI 1-6); higher = more stable;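 note: lentivirally expressed fusions sorted by FACS into six bins by GFP to DsRed ratio, PSI derived from sequencing read proportions per bin multiplied by bin number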
condition.context: c terminus: a fixed tail appended
reported.endpoint: protein stability index
Lab note: jot the number down without any unit.

Sample answers from the record:
Looking for the measured protein stability index of K9A , can you help?
4.37

Looking for the measured protein stability index of K17E , can you help?
3.46

Looking for the measured protein stability index of I3H , can you help?
4.59

Looking for the measured protein stability index of E10R , can you help?
4.43

Further cases:
Looking for the measured protein stability index of S24M , can you help?
3.49

Looking for the measured protein stability index of L2W , can you help?
3.43

Looking for the measured protein stability index of E12Y , can you help?
3.38

Looking for the measured protein stability index of E15Q , can you help?
4.08

Looking for the measured protein stability index of A13E , can you help?
3.57
